- assayedSystem: Butyrylcholinesterase (Rattus norvegicus)
- Sequence (Q9JKC1 whole entry): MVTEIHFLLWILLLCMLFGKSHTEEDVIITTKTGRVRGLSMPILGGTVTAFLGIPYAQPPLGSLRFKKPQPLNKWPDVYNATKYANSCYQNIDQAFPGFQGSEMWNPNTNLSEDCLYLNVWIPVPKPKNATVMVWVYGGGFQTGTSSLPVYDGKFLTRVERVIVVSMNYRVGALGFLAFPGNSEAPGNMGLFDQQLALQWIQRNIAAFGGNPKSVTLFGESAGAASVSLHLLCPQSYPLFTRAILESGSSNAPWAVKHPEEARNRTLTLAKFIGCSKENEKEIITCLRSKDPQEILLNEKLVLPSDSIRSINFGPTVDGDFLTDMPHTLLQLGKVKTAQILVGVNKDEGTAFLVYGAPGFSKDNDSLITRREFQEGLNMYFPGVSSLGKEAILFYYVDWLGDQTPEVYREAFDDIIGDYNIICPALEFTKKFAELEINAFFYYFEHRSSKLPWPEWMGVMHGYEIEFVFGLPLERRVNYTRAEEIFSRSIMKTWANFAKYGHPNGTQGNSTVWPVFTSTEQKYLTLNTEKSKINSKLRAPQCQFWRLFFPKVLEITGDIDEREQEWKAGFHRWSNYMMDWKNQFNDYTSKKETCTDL
- assayMethodText: Inhibitory concentration against butyrylcholinesterase of rat serum
API: label(entry) gives Y if the entry's IC50 is strictly smaller than 70 µM; on equality or larger values it gives N.

• CC1=CC2Cc3[nH]c(=O)ccc3[C@@]3(C1)[C@@H]2CCCN3C(=O)CCN(C)CCCCCCCCN(C)CCC(=O)N1CCC[C@@H]2C3C=C(C)C[C@]21c1ccc(=O)[nH]c1C3 = Y
• CC1=C[C@H]2Cc3[nH]c(=O)ccc3[C@]3(C1)NCCC[C@H]23 = N
• CC1=CC2Cc3[nH]c(=O)ccc3[C@@]3(C1)[C@@H]2CCCN3C(=O)CN(C)CCCN(C)CC(=O)N1CCC[C@@H]2C3C=C(C)C[C@]21c1ccc(=O)[nH]c1C3 = Y
• CC1=CC2Cc3[nH]c(=O)ccc3[C@@]3(C1)[C@@H]2CCCN3C(=O)CN(C)CCCCCCN(C)CC(=O)N1CCC[C@@H]2C3C=C(C)C[C@]21c1ccc(=O)[nH]c1C3 = Y
